Data provenance is ChEMBL document CHEMBL1151076.

Target: Cysteinyl leukotriene receptor 1 (Cavia porcellus, UniProt Q2NNR5)
Sequence (Q2NNR5 whole entry): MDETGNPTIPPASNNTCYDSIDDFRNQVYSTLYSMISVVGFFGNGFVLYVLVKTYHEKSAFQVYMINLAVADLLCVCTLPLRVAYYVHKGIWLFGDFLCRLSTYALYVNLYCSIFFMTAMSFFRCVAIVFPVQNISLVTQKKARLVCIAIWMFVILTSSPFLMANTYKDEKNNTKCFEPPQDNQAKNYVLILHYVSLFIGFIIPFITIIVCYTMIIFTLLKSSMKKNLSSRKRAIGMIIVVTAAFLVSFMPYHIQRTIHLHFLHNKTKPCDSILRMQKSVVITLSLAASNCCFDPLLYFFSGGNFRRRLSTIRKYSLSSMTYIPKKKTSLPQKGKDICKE
Assay: Concentration required for inhibition of binding of [3H]LTD4 to guinea pig lung membranes
Assay type: tissue-based, Membrane
pIC50: −log10 of the molar value.
reported-property: pIC50

- compound: "CCC(CC(=O)O)S[C@H](CCc1ccccc1C(C)(C)O)c1cccc(/C=C/c2ccc3ccc(Cl)cc3n2)c1 (stereo partly drawn)"
  measured-number: 9.24
- compound: "CC(S[C@H](CCc1ccccc1C(C)(C)O)c1cccc(/C=C/c2ccc3ccc(Cl)cc3n2)c1)C(C)C(=O)O (stereo partly drawn)"
  measured-number: 9.36
- compound: "C[C@H](C(=O)O)[C@@H](C)S[C@H](CCc1ccccc1C(C)(C)O)c1cccc(/C=C/c2ccc3ccc(Cl)cc3n2)c1"
  measured-number: 9.52
- compound: "CC[C@H](CS[C@H](CCc1ccccc1C(C)(C)O)c1cccc(/C=C/c2ccc3ccc(Cl)cc3n2)c1)C(=O)O"
  measured-number: 9.70
- compound: "CC(CC(=O)O)S[C@H](CCc1ccccc1C(C)(C)O)c1cccc(/C=C/c2ccc3ccc(Cl)cc3n2)c1 (stereo partly drawn)"
  measured-number: 9.10
- compound: "CN(C)C(=O)CCS[C@H](SCCC(=O)[O-])c1cccc(/C=C/c2ccc3ccc(Cl)cc3n2)c1.[Na+]"
  measured-number: 8.51
- compound: "CC(C)(CC(=O)O)S[C@H](CCc1ccccc1C(C)(C)O)c1cccc(/C=C/c2ccc3ccc(Cl)cc3n2)c1"
  measured-number: 9.17
- compound: "CC(CS[C@H](CCc1ccccc1C(C)(C)O)c1cccc(/C=C/c2ccc3ccc(Cl)cc3n2)c1)CC(=O)O (stereo partly drawn)"
  measured-number: 9.37
- compound: "C[C@H](S[C@H](CCc1ccccc1C(C)(C)O)c1cccc(/C=C/c2ccc3ccc(Cl)cc3n2)c1)[C@@H](C)C(=O)O"
  measured-number: 8.64
- compound: "CN(C)C(=O)CCSC(SCCC(=O)[O-])c1cccc(/C=C/c2ccc3ccc(Cl)cc3n2)c1.[Na+] (stereo not drawn)"
  measured-number: 8.82
- compound: "C[C@@H](CC(=O)O)S[C@H](CCc1ccccc1C(C)(C)O)c1cccc(/C=C/c2ccc3ccc(Cl)cc3n2)c1"
  measured-number: 9.48
- compound: "CC(C)(CS[C@H](CCc1ccccc1C(C)(C)O)c1cccc(/C=C/c2ccc3ccc(Cl)cc3n2)c1)CC(=O)O"
  measured-number: 9.52
- compound: "C[C@H](CC(=O)O)S[C@H](CCc1ccccc1C(C)(C)O)c1cccc(/C=C/c2ccc3ccc(Cl)cc3n2)c1"
  measured-number: 9.22
